- ASSAY: Cmax in Han-Wistar rat at 10 mg/kg, po measured after 15 to 480 mins by LC-MS/MS analysis
- Assay type: ADME, organism-based
- MEASUREMENT_SETUP: in vivo, read-out: C0
MEASUREMENT_KIND: Cmax (nM)
One number for each entry, in nM.

In: # lookup: Cmax of C[C@@H]1CN(c2cc(-c3n[nH]c4ccc(OC5(C)CC5)cc34)ncn2)C[C@H](C)O1
Out: 480

----------
- ASSAY: Equilibrium solubility in pH 6.5 Phosphate buffer after 24 hrs by HPLC method
- Type: physicochemical
MEASUREMENT_KIND: solubility thermodynamic at 24 h

In: # lookup: solubility thermodynamic at 24 h of C[C@@H]1CN(c2cc(-c3n[nH]c4ccc(OC5(C)CC5)cc34)ncn2)C[C@H](C)O1
Out: 14 to 38 µg/mL
